Molecular target: T1, murine CD22 protein (ACROBiosystems, SI2-M52Ha) (murine, UniProt P35329 22-708)
T1 construct: extracellular domain; also called murine CD22-ECD; murine CD22-ECD-His
T1 sequence (looked up): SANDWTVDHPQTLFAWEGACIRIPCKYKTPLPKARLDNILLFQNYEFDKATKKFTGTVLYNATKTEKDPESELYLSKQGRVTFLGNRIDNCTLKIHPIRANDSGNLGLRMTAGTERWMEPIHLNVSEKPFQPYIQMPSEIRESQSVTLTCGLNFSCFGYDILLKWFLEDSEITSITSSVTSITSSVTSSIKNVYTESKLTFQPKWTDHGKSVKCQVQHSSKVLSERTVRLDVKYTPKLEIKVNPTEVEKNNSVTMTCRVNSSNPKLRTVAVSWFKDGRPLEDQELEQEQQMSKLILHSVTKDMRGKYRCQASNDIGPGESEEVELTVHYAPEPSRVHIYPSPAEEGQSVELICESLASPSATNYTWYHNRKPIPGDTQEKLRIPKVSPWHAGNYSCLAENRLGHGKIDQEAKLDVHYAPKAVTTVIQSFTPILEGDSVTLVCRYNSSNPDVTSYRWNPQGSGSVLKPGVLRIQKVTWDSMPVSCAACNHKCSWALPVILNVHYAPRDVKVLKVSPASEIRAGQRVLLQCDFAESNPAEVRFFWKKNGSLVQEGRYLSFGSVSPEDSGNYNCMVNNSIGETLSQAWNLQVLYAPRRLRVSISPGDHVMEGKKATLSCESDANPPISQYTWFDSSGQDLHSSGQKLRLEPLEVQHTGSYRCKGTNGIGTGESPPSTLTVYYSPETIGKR
Assay: ELISA, coated murine CD22, 0.1 nM Ab

# binder, OD450 [OD450]
data = [
    ("F1.60.9 human-murine chimeric antibody (antibody, human IgG1, kappa, V domains shown, Chimeric, human IgG1 / kappa) VH: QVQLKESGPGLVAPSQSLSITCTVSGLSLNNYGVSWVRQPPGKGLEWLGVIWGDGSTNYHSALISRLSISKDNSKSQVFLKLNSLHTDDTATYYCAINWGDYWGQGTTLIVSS VL: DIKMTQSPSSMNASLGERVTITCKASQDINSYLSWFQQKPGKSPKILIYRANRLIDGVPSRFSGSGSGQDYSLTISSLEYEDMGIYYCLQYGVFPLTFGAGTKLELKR", 0.05),
    ("F1.280.1 human-murine chimeric antibody (antibody, human IgG1, kappa, V domains shown, Chimeric, human IgG1 / kappa) VH: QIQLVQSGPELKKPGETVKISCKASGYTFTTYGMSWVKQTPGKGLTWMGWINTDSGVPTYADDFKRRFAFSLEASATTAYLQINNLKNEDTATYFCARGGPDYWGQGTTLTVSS VL: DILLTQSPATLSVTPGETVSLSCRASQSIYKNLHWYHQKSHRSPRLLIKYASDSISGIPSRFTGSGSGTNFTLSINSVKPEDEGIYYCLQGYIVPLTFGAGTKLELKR", 0.05),
    ("F2.42.9 human-murine chimeric antibody (antibody, human IgG1, lambda, V domains shown, Chimeric, human IgG1 / lambda; VL tied by name) VH: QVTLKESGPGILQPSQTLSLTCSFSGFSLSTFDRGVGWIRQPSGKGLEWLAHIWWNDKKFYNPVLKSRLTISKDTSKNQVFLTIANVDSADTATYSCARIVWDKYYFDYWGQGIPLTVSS VL: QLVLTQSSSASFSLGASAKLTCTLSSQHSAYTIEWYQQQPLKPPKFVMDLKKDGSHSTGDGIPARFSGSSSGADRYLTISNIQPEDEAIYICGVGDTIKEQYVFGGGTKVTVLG", 0.08),
    ("F1.62.10 human-murine chimeric antibody (antibody, human IgG1, kappa, V domains shown, Chimeric, human IgG1 / kappa) VH: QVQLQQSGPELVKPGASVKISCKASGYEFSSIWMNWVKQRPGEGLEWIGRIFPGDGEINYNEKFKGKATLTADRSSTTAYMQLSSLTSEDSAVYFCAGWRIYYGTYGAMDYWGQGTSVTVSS VL: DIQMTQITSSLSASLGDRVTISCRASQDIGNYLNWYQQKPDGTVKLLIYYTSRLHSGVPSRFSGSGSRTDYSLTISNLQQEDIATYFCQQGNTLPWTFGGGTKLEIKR", 0.05),
]
